System: HEK-293T
Assay: Multiplex assay against HEK293T
Type: toxicity, cell-based
Details: human, 12 h, 10 µM, compound concentration 10 uM, replicate 2
// boundary case: Population Apoptotic (%) equal to 20% maps to f; strictly smaller maps to t

CCCCN(CC)c1nc(C)nc2c1c(C)cn2-c1c(C)cc(C)cc1C.Cl
f
CC(C)c1cc(Nc2nc(N3CCC[C@H](N)C3)ncc2C(N)=O)cc(C(C)C)n1
f
Oc1cccc(-c2nc(N3CCOCC3)c3oc4ncccc4c3n2)c1
f
CCCc1cc(C)[nH]c(=O)c1CNC(=O)c1cc(-c2ccc(N3CCN(C(C)C)CC3)nc2)cc2c1cnn2C(C)C
f
Cc1ccc(S(=O)(=O)NC2c3ccccc3Oc3ccccc32)cc1
t

Req: Please check: Population Apoptotic (%) for NC(=O)c1ccc2nc(-c3ccc(C4(N)CCC4)cc3)c(-c3ccccc3)n2n1 , strictly under 20% or not?
Resp: t

Req: Strictly below 20%: is that where Population Apoptotic (%) of C=CC(=O)Nc1cc(-n2c(=O)ccc3cnc4ccc(-c5ccc(NS(C)(=O)=O)cc5)cc4c32)ccc1C sits?
Resp: t
